// provenance: the supplement of paper PMC10567573

Listed here are variants together with their documented protein stability index.
B1: RAD51 (parent)
chain: RFLRMLLRLADEFGVAVVITNQVV

# Variants of: B1
# protocol summary: protein stability index of a GFP-peptide fusion (GPS, HEK-293T) (PSI 1-6); higher = more stable;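 note: lentivirally expressed fusions sorted by FACS into six bins by GFP to DsRed ratio, PSI derived from sequencing read proportions per bin multiplied by bin number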
# conditions: c terminus: a fixed tail appended
Answer field: number only, no words.

Reported protein stability index for `I19K` was 2.52

Reported protein stability index for `V15W` was 2.43

Reported protein stability index for `L7A` was 1.25

Reported protein stability index for `R4T` was 2.42

Reported protein stability index for `L7K` was 1.98
